target or test system: oxytocin receptor ([^3 H]OT binding, uterine tissue) (Rattus norvegicus)
Construct: tissue Taconic Farms, Germantown, N.Y. (animals); host or cells: uterus of nonpregnant adult Sprague-Dawley rats pretreated with diethylstilbestrol propionate, crude membranes
Sequence (P70536 whole entry): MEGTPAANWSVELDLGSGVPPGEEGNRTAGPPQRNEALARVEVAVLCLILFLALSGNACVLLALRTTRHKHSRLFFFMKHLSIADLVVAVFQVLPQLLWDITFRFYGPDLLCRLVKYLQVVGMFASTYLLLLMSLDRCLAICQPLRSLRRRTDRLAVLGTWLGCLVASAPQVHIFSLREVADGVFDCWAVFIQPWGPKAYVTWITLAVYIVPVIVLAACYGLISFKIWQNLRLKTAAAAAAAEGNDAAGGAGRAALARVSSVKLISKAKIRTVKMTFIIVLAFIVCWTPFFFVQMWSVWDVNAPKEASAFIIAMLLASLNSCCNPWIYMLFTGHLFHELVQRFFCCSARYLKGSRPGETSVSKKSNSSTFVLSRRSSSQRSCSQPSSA
experiment summary: [3H]oxytocin radioligand binding competition assay, rat uterus
Design: species or system rat (Sprague-Dawley)
Procedure: RADIOLIGAND BINDING ASSAYS Ther., 256(1): 304-308 (1991)]. Uterine tissue was taken from nonpregnant adult Sprague-Dawley rats (Taconic Farms, Germantown, N.Y.) pretreated (18-24 h) with diethylstilbestrol propionate (DES; 300 μg/kg, i.p.). […] Nonspecific binding was determined using 1 μM unlabeled OT or AVP in their respective assays. […] Data is either reported as a given percentage of inhibition at a specified concentration,or if an IC50 was calculated, as a nanomolar concentration.
endpoint label: IC50 (nM)

compound: COc1ccc(CC(=O)N2CCC3(C=Cc4ccccc43)CC2)c(OC)c1 [Example 1]
unit info: nM
numeric result: 400

compound: COc1cc(OC2CCN(C(C)=O)CC2)ccc1CC(=O)N1CCN(c2ccccc2C)CC1C(N)=O (stereo not shown) [Example 9]
unit info: nM
numeric result: 34

compound: CCN(CC)CCS(=O)(=O)N1CCC(Oc2ccc(CC(=O)N3CCN(c4ccccc4C)CC3C(N)=O)c(OC)c2)CC1 (stereo not shown) [Example 11]
unit info: nM
numeric result: 21

compound: O=C(Nc1ccc(CC(=O)N2CCC3(C=Cc4ccccc43)CC2)cc1)c1ccc2cc[nH]c2c1 [Example 4]
unit info: nM
numeric result: 1600

compound: COc1cc(OC2CCN(Cc3cccnc3)CC2)ccc1CC(=O)N1CCN(c2ccccc2C)CC1C(N)=O (stereo not shown) [Example 15]
unit info: nM
numeric result: 28

A: COc1cc(OC2CCN(S(=O)(=O)CCNC3CC3)CC2)ccc1CC(=O)N1CCN(c2ccccc2C)CC1C(N)=O (stereo not shown) [Example 12]
B: Cc1ccccc1N1CCN(C(=O)Cc2ccc(NC(=O)c3ccc4[nH]cnc4c3)cc2)C(C(N)=O)C1 (stereo not shown) [Example 8]
C: O=C(Nc1ccc(CC(=O)N2CCC3(C=Cc4ccccc43)CC2c2ccccc2)cc1)c1ccc2[nH]cnc2c1 (stereo not shown) [Example 2]
D: COc1ccc(CC(=O)N2CCN(c3ccccc3C)CC2C(N)=O)c(OC)c1 (stereo not shown) [Example 7]
E: COc1ccc(CC(=O)N2CCN(c3ccccc3C)CC2)c(OC)c1 [Example 6]
q: Number of compounds to sort: 5. Sort criterion: IC50, ascending. In plain terms: list the labels in the order you were asked to.
a: A, B, D, C, E
